Provide the reported kcat /Km, Xa of each item.
Biological target: factor Xa (Homo sapiens, UniProt P00742)
Sequence (P00742 235-488 limits assumed): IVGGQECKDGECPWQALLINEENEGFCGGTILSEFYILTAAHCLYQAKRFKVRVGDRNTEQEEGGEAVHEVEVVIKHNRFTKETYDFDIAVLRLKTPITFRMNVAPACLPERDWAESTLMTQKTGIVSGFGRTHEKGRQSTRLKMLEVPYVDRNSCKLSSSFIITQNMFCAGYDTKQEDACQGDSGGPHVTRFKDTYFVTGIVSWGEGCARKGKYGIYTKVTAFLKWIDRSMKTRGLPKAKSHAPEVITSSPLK
Sequence (P00742 41-179 limits assumed): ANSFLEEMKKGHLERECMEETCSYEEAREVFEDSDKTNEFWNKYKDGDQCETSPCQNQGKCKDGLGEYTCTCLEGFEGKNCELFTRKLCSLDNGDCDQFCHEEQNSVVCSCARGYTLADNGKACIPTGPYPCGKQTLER
Test: Fluorogenic enzyme assay (Example 5)
Type: biochemical
Conditions: Table 9
Give bare numbers, in M⁻¹ s⁻¹.

Looking up CCCNS(=O)(=O)c1cccc2cc(NC(=O)[C@H](CCCNC(=N)N)NC(=O)[C@H](Cc3ccccc3)NC(=O)[C@@H]3CCCN3)ccc12.Cl.Cl [PFR-ANSNHC3 H7] , I see its kcat /Km, Xa listed as 2000

Looking up Br.Br.CC(C)C[C@@H](N)C(=O)N1CCC[C@H]1C(=O)N[C@@H](CCCNC(=N)N)C(=O)Nc1ccc2c(S(=O)(=O)N3CCCCC3)cccc2c1 [D-LPR-ANSN(CH2)5] , I see its kcat /Km, Xa listed as 7250

Looking up Cc1ccc(S(=O)(=O)NCC(=O)N2CCC[C@H]2C(=O)N[C@@H](CCCNC(=N)N)C(=O)Nc2ccc3c(S(=O)(=O)NCC(C)C)cccc3c2)cc1 [TosGPR-ANSNH(i-C4 H9)] , I see its kcat /Km, Xa listed as 6800

Looking up CCCNS(=O)(=O)c1cccc2cc(NC(=O)[C@H](CCCNC(=N)N)NC(=O)[C@H](Cc3ccccc3)NC(=O)[C@@H]3CCCN3C(=O)OC(C)(C)C)ccc12 [BocPFR-ANSNHC3 H7] , I see its kcat /Km, Xa listed as 260

Attention now shifts to the item below.
Looking up CC(C)C[C@@H](NC(=O)OCc1ccccc1)C(=O)N1CCC[C@H]1C(=O)N[C@@H](CCCNC(=N)N)C(=O)Nc1ccc2c(S(=O)(=O)N3CCCCC3)cccc2c1 [ZD-LPR-ANSN(CH2)5] , I see its kcat /Km, Xa listed as 133000

---

Target: thrombin (IIa) (Homo sapiens)
Construct: 0.5 nM human thrombin (IIa)
Assay: Fluorogenic enzyme assay (Example 5)
Format: biochemical
Details: 10 nM enzyme, substrate 1 μM
Provide the reported TIME TO 10% HYDROLYSIS (HOURS), IIa of each item.
One number for each entry, in h.

Below is a list of molecules. For each, state its recorded TIME TO 10% HYDROLYSIS (HOURS), IIa.
1. Br.Br.Br.N=C(N)NCCC[C@H](NC(=O)CNC(=O)CN)C(=O)N[C@@H](CCCNC(=N)N)C(=O)Nc1ccc2c(S(=O)(=O)NC3CCCCC3)cccc2c1 [GGRR-ANSNH(cyclo-C6 H11)]
2. CCCNS(=O)(=O)c1cccc2cc(NC(=O)[C@H](CCCNC(=N)N)NC(=O)[C@H](Cc3ccccc3)NC(=O)[C@@H]3CCCN3)ccc12.Cl.Cl [PFR-ANSNHC3 H7]
3. CN(C)S(=O)(=O)c1cccc2cc(NC(=O)[C@H](CCCNC(=N)N)NC(=O)[C@@H](N)CCCCNC(=O)OCc3ccccc3)ccc12.Cl.Cl [N^ω -AZ)KJR-ANSN(CH3)2]

Ans:
1. 93
2. 5
3. 26

---

Target: plasmin (Plm) (Homo sapiens)
Sequence (P00747 581-810 limits assumed, species assumed): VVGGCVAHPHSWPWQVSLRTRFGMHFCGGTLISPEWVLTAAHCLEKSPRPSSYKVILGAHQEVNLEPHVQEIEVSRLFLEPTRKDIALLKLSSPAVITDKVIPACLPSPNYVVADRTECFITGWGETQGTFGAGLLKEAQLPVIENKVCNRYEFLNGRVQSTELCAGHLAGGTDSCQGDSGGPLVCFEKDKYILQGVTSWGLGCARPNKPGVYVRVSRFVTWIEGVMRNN
Sequence (P00747 97-580 limits assumed, species assumed): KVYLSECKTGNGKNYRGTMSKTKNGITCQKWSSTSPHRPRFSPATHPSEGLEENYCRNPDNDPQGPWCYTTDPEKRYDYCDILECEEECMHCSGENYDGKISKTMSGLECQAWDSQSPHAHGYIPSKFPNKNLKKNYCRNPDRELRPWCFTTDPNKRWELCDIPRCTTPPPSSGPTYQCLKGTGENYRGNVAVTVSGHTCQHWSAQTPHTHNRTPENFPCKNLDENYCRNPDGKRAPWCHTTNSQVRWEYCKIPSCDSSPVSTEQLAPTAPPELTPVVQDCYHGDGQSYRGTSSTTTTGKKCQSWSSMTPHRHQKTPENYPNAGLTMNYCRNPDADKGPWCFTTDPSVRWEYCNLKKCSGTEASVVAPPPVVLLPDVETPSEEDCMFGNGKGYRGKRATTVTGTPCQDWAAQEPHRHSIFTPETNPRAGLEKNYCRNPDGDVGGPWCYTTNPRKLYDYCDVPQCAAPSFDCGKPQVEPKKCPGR
Assay: Fluorogenic enzyme assay (Example 5)
Type: biochemical
Settings: footnote b; enzyme 100 nM, substrate 1 μM
READOUT NAME: Time (min) for 5% hydrolysis, Plm
Give bare numbers, in min.

Check out these entries, answers already filled in.
Fill in: plasmin (Plm) (Homo sapiens) Time (min) for 5% hydrolysis, Plm for `Br.N=C(N)NCCC[C@H](NC(=O)OCc1ccccc1)C(=O)Nc1ccc2c(S(=O)(=O)N3CCCCCC3)cccc2c1` = 770

Fill in: plasmin (Plm) (Homo sapiens) Time (min) for 5% hydrolysis, Plm for `Br.CNS(=O)(=O)c1cccc2cc(NC(=O)[C@H](CCCNC(=N)N)NC(=O)OCc3ccccc3)ccc12` = 1620

Fill in: plasmin (Plm) (Homo sapiens) Time (min) for 5% hydrolysis, Plm for `Br.CCN(CC)S(=O)(=O)c1cccc2cc(NC(=O)[C@H](CCCNC(=N)N)NC(=O)OCc3ccccc3)ccc12` = 1370

Fill in: plasmin (Plm) (Homo sapiens) Time (min) for 5% hydrolysis, Plm for `Br.N=C(N)NCCC[C@H](NC(=O)OCc1ccccc1)C(=O)Nc1ccc2c(S(=O)(=O)N3CCOCC3)cccc2c1` = 1220

Fill in: plasmin (Plm) (Homo sapiens) Time (min) for 5% hydrolysis, Plm for `Br.CC(C)CNS(=O)(=O)c1cccc2cc(NC(=O)[C@H](CCCNC(=N)N)NC(=O)OCc3ccccc3)ccc12` = 1620

Below is a list of compounds. For each, state its recorded Time (min) for 5% hydrolysis, Plm.
1. Br.CC(C)NS(=O)(=O)c1cccc2cc(NC(=O)[C@H](CCCNC(=N)N)NC(=O)OCc3ccccc3)ccc12
2. Br.CC(C)(C)NS(=O)(=O)c1cccc2cc(NC(=O)[C@H](CCCNC(=N)N)NC(=O)OCc3ccccc3)ccc12
3. Br.CCCNS(=O)(=O)c1cccc2cc(NC(=O)[C@H](CCCNC(=N)N)NC(=O)OCc3ccccc3)ccc12

Ans:
1. 1370
2. 910
3. 1620

---

Target: thrombin (IIa) (Homo sapiens)
Construct: 0.5 nM human thrombin (IIa)
Test: Fluorogenic enzyme assay (Example 5)
Type: biochemical
Settings: enzyme 100 nM, substrate 1 μM
Output: class label from Time (min) for 10% hydrolysis, IIa. Mapping: bottom = under 30 min, middle = from 30 min up to 40 min, top = 40 min and over

For orientation, consider the following solved cases.
Q: Assign a bin to Br.N=C(N)NCCC[C@H](NC(=O)OCc1ccccc1)C(=O)Nc1ccc2c(S(=O)(=O)NC3CCCCC3)cccc2c1 [(N^α -Z)ArgANSNR1 R2; H; cyclo-C6 H11]
Ans: bottom

Q: Assign a bin to Br.N=C(N)NCCC[C@H](NC(=O)OCc1ccccc1)C(=O)Nc1ccc2c(S(=O)(=O)NCc3ccccc3)cccc2c1 [(N^α -Z)ArgANSNR1 R2; H; benzyl]
Ans: bottom

Q: Assign a bin to Br.CC(C)(C)NS(=O)(=O)c1cccc2cc(NC(=O)[C@H](CCCNC(=N)N)NC(=O)OCc3ccccc3)ccc12 [(N^α -Z)ArgANSNR1 R2; H; t-C4 H9]
Ans: middle

Q: Assign a bin to Br.CCCNS(=O)(=O)c1cccc2cc(NC(=O)[C@H](CCCNC(=N)N)NC(=O)OCc3ccccc3)ccc12 [(N^α -Z)ArgANSNR1 R2; H; C3 H7]
Ans: bottom

Q: Assign a bin to Br.CCN(CC)S(=O)(=O)c1cccc2cc(NC(=O)[C@H](CCCNC(=N)N)NC(=O)OCc3ccccc3)ccc12 [(N^α -Z)ArgANSNR1 R2; C2 H5; C2 H5]
Ans: top

Next:
Q: Assign a bin to Br.CC(C)CNS(=O)(=O)c1cccc2cc(NC(=O)[C@H](CCCNC(=N)N)NC(=O)OCc3ccccc3)ccc12 [(N^α -Z)ArgANSNR1 R2; H; i-C4 H9]
Ans: bottom

Q: Assign a bin to Br.N=C(N)NCCC[C@H](NC(=O)OCc1ccccc1)C(=O)Nc1ccc2c(S(=O)(=O)N3CCCCCC3)cccc2c1 [(N^α -Z)ArgANSNR1 R2; (CH2)6]
Ans: top

Q: Assign a bin to Br.N=C(N)NCCC[C@H](NC(=O)OCc1ccccc1)C(=O)Nc1ccc2c(S(=O)(=O)N3CCOCC3)cccc2c1 [(N^α -Z)ArgANSNR1 R2; morpholyl]
Ans: top

Q: Assign a bin to Br.CC(C)NS(=O)(=O)c1cccc2cc(NC(=O)[C@H](CCCNC(=N)N)NC(=O)OCc3ccccc3)ccc12 [(N^α -Z)ArgANSNR1 R2; H; i-C3 H7]
Ans: middle

Q: Assign a bin to Br.CNS(=O)(=O)c1cccc2cc(NC(=O)[C@H](CCCNC(=N)N)NC(=O)OCc3ccccc3)ccc12 [(N^α -Z)ArgANSNR1 R2; H; CH3]
Ans: middle

Q: Assign a bin to Br.CN(C)S(=O)(=O)c1cccc2cc(NC(=O)[C@H](CCCNC(=N)N)NC(=O)OCc3ccccc3)ccc12 [(N^α -Z)ArgANSNR1 R2; CH3; CH3]
Ans: top

---

Provide the reported kcat, APC of each item.
Biological target: activated protein C (APC) (Homo sapiens, UniProt P04070)
Sequence (P04070 212-461 limits assumed): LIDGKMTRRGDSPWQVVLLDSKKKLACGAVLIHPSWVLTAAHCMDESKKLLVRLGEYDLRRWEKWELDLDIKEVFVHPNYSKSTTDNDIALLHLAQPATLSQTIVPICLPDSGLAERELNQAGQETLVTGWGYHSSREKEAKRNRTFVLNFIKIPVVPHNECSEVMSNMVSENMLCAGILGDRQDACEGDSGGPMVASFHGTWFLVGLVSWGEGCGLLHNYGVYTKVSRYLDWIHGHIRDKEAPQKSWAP
Sequence (P04070 43-197 limits assumed): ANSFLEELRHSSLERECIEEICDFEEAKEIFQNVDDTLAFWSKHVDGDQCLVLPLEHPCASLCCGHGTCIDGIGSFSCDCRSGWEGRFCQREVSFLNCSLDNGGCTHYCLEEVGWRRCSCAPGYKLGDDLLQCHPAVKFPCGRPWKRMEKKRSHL
Test: Fluorogenic enzyme assay (Example 5)
Format: biochemical
Conditions: Table 9
Numbers only, in s⁻¹.

Check out these entries, answers already filled in.
Fill in: activated protein C (APC) (Homo sapiens, UniProt P04070) kcat, APC for `Cc1ccc(S(=O)(=O)NCC(=O)N2CCC[C@H]2C(=O)N[C@@H](CCCNC(=N)N)C(=O)Nc2ccc3c(S(=O)(=O)NCC(C)C)cccc3c2)cc1` = 120

Fill in: activated protein C (APC) (Homo sapiens, UniProt P04070) kcat, APC for `CCCNS(=O)(=O)c1cccc2cc(NC(=O)[C@H](CCCNC(=N)N)NC(=O)[C@H](Cc3ccccc3)NC(=O)[C@@H]3CCCN3)ccc12.Cl.Cl` = 4.7

Fill in: activated protein C (APC) (Homo sapiens, UniProt P04070) kcat, APC for `N=C(N)NCCC[C@H](NC(=O)CNC(=O)CNC(=O)OCc1ccccc1)C(=O)N[C@@H](CCCNC(=N)N)C(=O)Nc1ccc2c(S(=O)(=O)NC3CCCCC3)cccc2c1` = 6.2

Below is a list of compounds. For each, state its recorded kcat, APC.
1. Br.Br.Br.N=C(N)NCCC[C@H](NC(=O)CNC(=O)CN)C(=O)N[C@@H](CCCNC(=N)N)C(=O)Nc1ccc2c(S(=O)(=O)NC3CCCCC3)cccc2c1
2. CC(C)C[C@@H](NC(=O)OCc1ccccc1)C(=O)N1CCC[C@H]1C(=O)N[C@@H](CCCNC(=N)N)C(=O)Nc1ccc2c(S(=O)(=O)N3CCCCC3)cccc2c1

Ans:
3.1
7.1

Fill in: activated protein C (APC) (Homo sapiens, UniProt P04070) kcat, APC for `Br.Br.CC(C)C[C@@H](N)C(=O)N1CCC[C@H]1C(=O)N[C@@H](CCCNC(=N)N)C(=O)Nc1ccc2c(S(=O)(=O)N3CCCCC3)cccc2c1` = 1.1
